- experiment description: Integrated area under the plasma drug level-time curve after intraduodenal administration at a dose 10 mg/kg from systemic circulation in salt-depleted cynomolgus monkeys using HPLC assay
- Format: ADME, organism-based, Macaca fascicularis
- Parameters: dose 10 mg/kg, route intraduodenal
- assay setup: cynomolgus monkey
quantity kind: AUC (ng·h/mL)
Give a bare numeral; the unit ng·h/mL is implied.

QUERY: AUC for "CCN1C[C@@H]([C@H](O)[C@H](CC2CCCCC2)NC(=O)[C@H](Cc2cscn2)NC(=O)[C@@H](CC(=O)N2CCOCC2)Cc2ccccc2)OC1=O" ?
RESULT: 770

---

- experiment description: Peak plasma drug level after intraduodenal administration at a dose 10 mg/kg from systemic circulation in salt-depleted cynomolgus monkeys using HPLC assay
- Assay type: ADME, organism-based, Macaca fascicularis
- Parameters: dose 10 mg/kg, route intraduodenal
- assay setup: cynomolgus monkey, read-out: Activity
quantity kind: Cmax

QUERY: For "CCN1C[C@@H]([C@H](O)[C@H](CC2CCCCC2)NC(=O)[C@H](Cc2cscn2)NC(=O)[C@@H](CC(=O)N2CCOCC2)Cc2ccccc2)OC1=O" , what is its reported Cmax?
RESULT: 360 ng/mL

---

concentration at 10 min listing for selected molecules.
- experiment description: Plasma level by the renin inhibition assay from samples taken at 10 minutes from systemic circulation by administering 10 mg/kg intraduodenally to the rat
Answer in ng/mL, number only, no unit symbol.

Examples with their reported concentration at 10 min follow.
QUERY: concentration at 10 min lookup needed for "CCN1C[C@@H]([C@H](O)[C@H](CC2CCCCC2)NC(=O)[C@H](Cc2cscn2)NC(=O)[C@@H](CC(=O)N2CCOCC2)Cc2ccccc2)OC1=O" , thanks.
RESULT: 320

QUERY: Likewise for "COc1ccc(C[C@H](NC(=O)CC(C)(C)N)C(=O)N[C@@H](Cc2cccs2)C(=O)N[C@@H](CC2CCCCC2)[C@@H](O)[C@@H](O)CC(C)C)cc1" ?
RESULT: 9

Let us examine a further case.
QUERY: What measured concentration at 10 min goes with "CON(C)C[C@H](NC(=O)[C@@H](CC(=O)N1CCOCC1)Cc1ccccc1)C(=O)N[C@@H](CC1CCCCC1)[C@@H](O)[C@@H](O)CC(C)C" ?
RESULT: 340

---

- experiment description: Plasma level by the renin inhibition assay from samples taken at 10 minutes from systemic circulation by administering 10 mg/kg intraduodenally to the rat
Reported concentration at 10 min is given for each of the following molecules.
The figure you give is taken to be in ng/mL; do not add the unit.

QUERY: Look up concentration at 10 min for this molecule: "COc1ccc(C[C@H](NC(=O)C2CCN(C)CC2)C(=O)N[C@@H](Cc2cscn2)C(=O)N[C@@H](CC2CCCCC2)[C@@H](O)[C@@H](O)CC(C)C)cc1"
RESULT: 160

Further cases:
QUERY: Value lookup for concentration at 10 min; key = "COc1ccc(C[C@H](NC(=O)CC(C)(C)N)C(=O)N[C@@H](Cc2cscn2)C(=O)N[C@@H](CC2CCCCC2)[C@@H](O)[C@@H](O)CC(C)C)cc1"
RESULT: 17

QUERY: Again, but for "CCN1C[C@@H]([C@H](O)[C@H](CC2CCCCC2)NC(=O)[C@H](Cc2cnc[nH]2)NC(=O)[C@@H](CC(=O)N2CCOCC2)Cc2ccccc2)OC1=O"
RESULT: 55

QUERY: Next molecule up: "CCN1C[C@@H]([C@H](O)[C@H](CC2CCCCC2)NC(=O)[C@H](Cc2cscn2)NC(=O)[C@H](Cc2ccc(OC)cc2)NC(=O)CC(C)(C)N)OC1=O"
RESULT: 83

QUERY: Entry "COc1ccc(C[C@H](NC(=O)CC(C)(C)N)C(=O)N[C@@H](Cc2cnc[nH]2)C(=O)N[C@@H](CC2CCCCC2)[C@@H](O)[C@@H](O)CC(C)C)cc1" please
RESULT: 170

---

- experiment description: Plasma level by the renin inhibition assay from samples taken at 10 minutes from systemic circulation by administering 10 mg/kg intraduodenally to the rat
# thresholds on concentration at 10 min define classes: I = under 20 ng/mL, II = from 20 ng/mL up to 300 ng/mL, III = 300 ng/mL and over

Record excerpt, results attached:
QUERY: Please let me know in which category the item "CC(C)C[C@H](O)[C@H](O)[C@H](CC1CCCCC1)NC(=O)[C@H](Cc1c[nH]cn1)NC(=O)[C@@H](CC(=O)N1CCOCC1)Cc1ccccc1" belongs.
RESULT: I

QUERY: Now this one: "CCN1C[C@@H]([C@H](O)[C@H](CC2CCCCC2)NC(=O)[C@H](Cc2c[nH]cn2)NC(=O)[C@H](Cc2ccc(OC)cc2)NC(=O)CC(C)(C)N)OC1=O"
RESULT: II

QUERY: Same question for "CCN1C[C@@H]([C@H](O)[C@H](CC2CCCCC2)NC(=O)[C@H](Cc2cc[nH]n2)NC(=O)[C@@H](CC(=O)N2CCOCC2)Cc2ccccc2)OC1=O" please.
RESULT: I

QUERY: How about "CCN1C[C@@H]([C@H](O)[C@H](CC2CCCCC2)NC(=O)[C@H](Cc2cccs2)NC(=O)[C@H](Cc2ccc(OC)cc2)NC(=O)CC(C)(C)N)OC1=O" ?
RESULT: I

QUERY: Next record, please: "CC(C)C[C@H](NC(=O)[C@@H](CC(=O)N1CCN(C)CC1)Cc1ccccc1)C(=O)N[C@@H](CC1CCCCC1)[C@@H](O)[C@@H](O)CC(C)C"
RESULT: III

QUERY: Note, next up: "CC(C)C[C@H](O)[C@H](O)[C@H](CC1CCCCC1)NC(=O)[C@H](Cc1c[nH]cn1)NC(=O)[C@@H](CC(=O)N1CCN(C)CC1)Cc1ccccc1"
RESULT: II

QUERY: Another compound to check: "CCCC[C@H](NC(=O)[C@@H](CC(=O)N1CCN(C)CC1)Cc1ccccc1)C(=O)N[C@@H](CC1CCCCC1)[C@@H](O)[C@@H](O)CC(C)C"
RESULT: II

QUERY: Also, "CC(C)C[C@H](O)[C@H](O)[C@H](CC1CCCCC1)NC(=O)[C@H](Cc1ccn[nH]1)NC(=O)[C@@H](CC(=O)N1CCN(C)CC1)Cc1ccccc1" please.
RESULT: II

QUERY: Try this compound too: "CC(C)C[C@H](O)[C@H](O)[C@H](CC1CCCCC1)NC(=O)[C@H](Cc1cscn1)NC(=O)[C@@H](CC(=O)CN1CCOCC1)Cc1ccccc1"
RESULT: II

QUERY: Input "CC(C)C[C@H](O)[C@H](O)[C@H](CC1CCCCC1)NC(=O)[C@H](Cn1cccn1)NC(=O)[C@@H](CC(=O)N1CCN(C)CC1)Cc1ccccc1"
RESULT: II

***
QUERY: Which category does the recorded concentration at 10 min put "CC(C)C[C@H](O)[C@H](O)[C@H](CC1CCCCC1)NC(=O)[C@H](Cc1cscn1)NC(=O)[C@H](Cc1ccccc1)N1CCOCC1" in?
RESULT: III

QUERY: What would you report for "CC(C)C[C@H](O)[C@H](O)[C@H](CC1CCCCC1)NC(=O)[C@H](Cc1cn(C)cn1)NC(=O)[C@@H](CC(=O)N1CCOCC1)Cc1ccccc1" ?
RESULT: III

---

Attribute: concentration at 10 min
- experiment description: Plasma level by the renin inhibition assay from samples taken at 10 minutes from portal circulation by administering 10 mg/kg intraduodenally to the rat
Supply the numeric figure in ng/mL, leaving out any unit text.

See these solved cases before continuing.
QUERY: I'd like to know its concentration at 10 min. The molecule in question is "CC(C)C[C@H](O)[C@H](O)[C@H](CC1CCCCC1)NC(=O)[C@H](Cn1cccn1)NC(=O)[C@@H](CC(=O)N1CCN(C)CC1)Cc1ccccc1"
RESULT: 2000

QUERY: Quick one: "CON(C)C[C@H](NC(=O)[C@@H](CC(=O)N1CCOCC1)Cc1ccccc1)C(=O)N[C@@H](CC1CCCCC1)[C@@H](O)[C@@H](O)CC(C)C"
RESULT: 3500

QUERY: Same question for "COc1ccc(C[C@H](NC(=O)CC(C)(C)N)C(=O)N[C@@H](Cc2cccs2)C(=O)N[C@@H](CC2CCCCC2)[C@@H](O)[C@@H](O)CC(C)C)cc1" please.
RESULT: 23

---
QUERY: I would be grateful if you could share the reported concentration at 10 min for "CC(C)C[C@H](NC(=O)[C@@H](CC(=O)N1CCN(C)CC1)Cc1ccccc1)C(=O)N[C@@H](CC1CCCCC1)[C@@H](O)[C@@H](O)CC(C)C" .
RESULT: 880

QUERY: Request: "CCN1C[C@@H]([C@H](O)[C@H](CC2CCCCC2)NC(=O)[C@H](Cc2c[nH]cn2)NC(=O)[C@H](Cc2ccc(OC)cc2)NC(=O)CC(C)(C)N)OC1=O"
RESULT: 140
